Please go through the items and note down their GI50.
# Tested on: LXFL 529
# test.protocol: NCI tumour cell line growth inhibition, 48 h
Activity calls are given as the source filed them. Rule as the data show it: active = GI50 up to about 1.1 µM and inactive = higher.

Please report the recorded GI50 for C=CSCCC(N)C(=O)O (stereo not drawn) .
> 100 µM (inactive)

Please report the recorded GI50 for `CCOC(=O)NC(=O)c1cn(CCCOC(=O)CCCCCCCCCCC(=O)OCCCn2cc(C(=O)NC(=O)OCC)c(=O)[nH]c2=O)c(=O)[nH]c1=O` .
> 100 µM (inactive)

Please report the recorded GI50 for `c1cnc2c3[nH]cc4[nH]c5ccccc5c4c-3nc2c1` .
68.1 µM (inactive)

----------
# Tested on: DMS-114
# test.protocol: NCI tumour cell line growth inhibition, 48 h
Active and inactive are the calls of the source. Rule as the data show it: active = GI50 up to about 1.1 µM and inactive = higher.
I would appreciate it if you answered using one of these outcomes: active, inactive

What classification did `Cc1c(NC(=O)C(C)(C)Br)c(=O)oc2c(C)c3occc(=O)c3cc12` end up with in this test?
inactive

What classification did `c1cnc2c3[nH]cc4[nH]c5ccccc5c4c-3nc2c1` end up with in this test?
inactive

What classification did C=CSCCC(N)C(=O)O (configuration not stated) end up with in this test?
inactive

What classification did `O=CN/C=C/c1ccc(O)c(O)c1` end up with in this test?
inactive

What classification did `Cc1cccc(-c2nc3c(C(=O)NCCN(C)C)cccc3[nH]2)c1` end up with in this test?
inactive

What classification did O=C(O)CC1CC=C[C@H]2c3cc4c(cc3C(=O)NC12)OCO4 (some centres not stated) end up with in this test?
inactive

What classification did `CC[n+]1c(/C=C/c2ccc(N(CCCl)CCCl)cc2)ccc2cc(NC(=O)/C=C/c3ccccc3)ccc21` end up with in this test?
active

What classification did `O=c1oc2c3ccc4ccccc4c3n(Cc3nc4ccccc4[nH]3)c2c2ccccc12` end up with in this test?
inactive

What classification did `N/C(=N\O)N/N=C/c1ncccc1O` end up with in this test?
inactive

What classification did `CCCN(CCC)C(=O)c1nc(N)nc(-c2ccc(OC)cc2)c1-c1ccc(OC)cc1` end up with in this test?
inactive

What classification did `CC(=O)OCCc1cccnc1/C=N/O` end up with in this test?
inactive

What classification did `COc1ccc(CN2CCC/C=C/CC(Cl)(Cl)C2=O)cc1` end up with in this test?
inactive

----------
# Tested on: SN12C
# test.protocol: NCI tumour cell line growth inhibition, 48 h
Calls of active or inactive are those of the source. Rule as the data show it: active = GI50 up to about 1.1 µM and inactive = higher.
Please go through the items and note down their GI50.

Please report the recorded GI50 for `COc1cc2c(oc(=O)c3c4oc([Si](C)(C)C)cc4cc(OC)c23)c2cccc(OCc3ccccc3)c12` .
> 100 µM (inactive)

Please report the recorded GI50 for `CCOc1ccc(/C=N\N2C(=O)c3ccccc3C2=O)cc1` .
> 100 µM (inactive)

Please report the recorded GI50 for `Cc1nc2ccc(Cl)cc2c2c1CCS2` .
42 µM (inactive)

----------
# Test system: SK-MEL-2
# test.protocol: NCI tumour cell line growth inhibition, 48 h
Activity calls are given as the source filed them. Rule as the data show it: active = GI50 up to about 1.1 µM and inactive = higher.
Please go through the items and note down their GI50.

Please report the recorded GI50 for `N#Cc1nc(-c2ccccn2)oc1N` .
> 100 µM (inactive)

Please report the recorded GI50 for CC(C)C(C)C(O)C(O)C(C)C1CCC2C3COC(=O)C4CC(O)C(O)CC4(C)C3CCC12C (stereo not given) .
> 100 µM (inactive)

Please report the recorded GI50 for `O=C(NCCNCCNCCNC(=O)c1cc(-c2ccccc2)nc2ccccc12)c1cc(-c2ccccc2)nc2ccccc12` .
1.54 µM (inactive)

Please report the recorded GI50 for `Nc1c(-c2cn(Cc3ccccc3)c3ccccc23)[n+]([O-])c2ccccc2[n+]1[O-]` .
23.1 µM (inactive)

Please report the recorded GI50 for `Cc1[nH]c2ccccc2c1/C=C/c1c(C)[nH]c2ccccc12` .
> 100 µM (inactive)
